meta.source: PubChem BioAssay (NCATS)

- System: HEK293
- Test Name: Cytotoxic Profiling of Annotated Libraries Using Quantitative High-Throughput Screening (AID 1296008); note: nearly all actives have a fitted effect of over 60% in size; note: potency is the fitted concentration of half-maximal effect
- Run Conditions: Five cell lines viability, CellTiter-Glo ATP luminescence, 48-72 h
Results filed as inconclusive are left out. Activity calls are given as the source filed them. Calls come from the whole dose curve; as a rule, active = well fitted inhibition curve with a large enough effect; inconclusive = small, poorly fitted or top-dose-only effect; inactive = flat fitted curve, though single readings scatter.
Parameter Measured: Potency

Use these answered entries as a reference point.
1. COC(=O)CCC1(C)C(C(C)(C)O)C(O)CC2(C)Oc3c(C)c4c(c(OC)c3CC21)C(=O)OC4 (stereo unspecified) ... inactive
2. CC(CCc1ccc(O)cc1)O[C@@H]1O[C@H](CO[C@@H]2OC(CO)[C@H](O)[C@H]2O)[C@@H](O)[C@H](O)[C@H]1O (stereo partly specified) ... inactive
3. C[C@@H]1C(=O)O[C@H]2[C@H]1CC[C@@]1(C)C(=O)C=C[C@@](C)(O)[C@H]21 ... inactive
4. C/C=C/C=C/C=C/C(=O)O[C@@H]1C=C(CO)[C@](O)(CO)[C@@]2(C)CCCC(C)(C)[C@H]12 ... 12.8 µM (active)
5. C=C(CCO)C(=O)OCC1OCC(OC(=O)C(=C)CCO[C@@H]2O[C@H](COC(=O)C(=C)CCO[C@@H]3O[C@H](CO)[C@@H](O)[C@H](O)[C@H]3O)[C@@H](O)[C@H](O)[C@H]2O)C(O)C1O (stereo partly specified) ... inactive
6. COc1cccc(CNc2ccc(S(=O)(=O)Nc3nc4ccccc4s3)cc2)c1O ... inactive

// below: Potency requested for another compound
Req: Record `c1ccc2c(Nc3nnc(-c4ccncc4)s3)cccc2c1` : what is its Potency with HEK293?
Resp: inactive
